- experiment-summary: Cmax in Sprague-Dawley rat at 1 mg/kg, po by LC-MS/MS analysis
- Format: ADME, organism-based
- Design: dose 1 mg/kg, route oral
- particulars: in vivo
measured-attribute: Cmax (ng/mL)
Report the figure in ng/mL without appending any unit label.

Request: Reported Cmax, compound CSc1ncccc1CNc1ncc(C#N)c(NCC23CC4CC(C2)C(NC[C@H]2CC[C@H](O)CC2)C(C4)C3)n1 (stereo partly specified) : ____
Result: 12.4

====

- system-name: Protein kinase C theta type (Homo sapiens, UniProt Q04759)
- Sequence (Q04759 whole entry): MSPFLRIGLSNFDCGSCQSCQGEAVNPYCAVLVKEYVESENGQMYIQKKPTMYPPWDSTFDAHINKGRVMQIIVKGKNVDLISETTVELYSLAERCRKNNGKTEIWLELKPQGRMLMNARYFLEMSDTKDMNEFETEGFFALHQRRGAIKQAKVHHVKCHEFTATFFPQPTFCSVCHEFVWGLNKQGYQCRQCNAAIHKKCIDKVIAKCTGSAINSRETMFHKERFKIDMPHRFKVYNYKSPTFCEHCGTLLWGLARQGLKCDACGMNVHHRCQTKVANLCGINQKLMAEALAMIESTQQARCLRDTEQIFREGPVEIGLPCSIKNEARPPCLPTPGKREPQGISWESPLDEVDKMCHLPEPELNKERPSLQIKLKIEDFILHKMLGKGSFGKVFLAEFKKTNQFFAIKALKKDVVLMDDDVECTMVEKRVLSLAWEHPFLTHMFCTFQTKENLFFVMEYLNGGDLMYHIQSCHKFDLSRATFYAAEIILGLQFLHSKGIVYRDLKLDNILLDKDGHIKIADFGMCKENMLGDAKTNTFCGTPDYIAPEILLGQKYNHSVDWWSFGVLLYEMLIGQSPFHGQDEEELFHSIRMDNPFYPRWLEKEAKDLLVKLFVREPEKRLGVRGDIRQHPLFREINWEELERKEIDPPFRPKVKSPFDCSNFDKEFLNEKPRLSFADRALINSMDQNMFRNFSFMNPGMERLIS
- experiment-summary: Inhibition of PKCtheta in human Jurkat cells assessed as reduction in IL2 production after 14 hrs by luciferase reporter gene assay
- Assay type: cell-based
measured-attribute: pIC50
Note on pIC50: it is the negative log10 of concentration, concentration in mol/L.

>  <compound>
COc1ncccc1CNc1ncc(C#N)c(NCC23CC4CC(C2)C(NC[C@H]2CC[C@H](O)CC2)C(C4)C3)n1 (stereo partly specified)

>  <measured-attribute>
pIC50

>  <reading>
7.37

$$$$
>  <compound>
CC(C)Oc1ncccc1CNc1ncc(C#N)c(NCC23CC4CC(C2)C(NC[C@H]2CC[C@H](O)CC2)C(C4)C3)n1 (stereo partly specified)

>  <measured-attribute>
pIC50

>  <reading>
7.74

$$$$
>  <compound>
CSc1ncccc1CNc1ncc(C#N)c(NCC23CC4CC(C2)C(NC[C@H]2CC[C@H](O)CC2)C(C4)C3)n1 (stereo partly specified)

>  <measured-attribute>
pIC50

>  <reading>
8.00

$$$$
>  <compound>
N#Cc1cnc(NCc2ccccc2Cl)nc1NCC12CC3CC(C1)C(NC[C@H]1CC[C@H](O)CC1)C(C3)C2 (stereo partly specified)

>  <measured-attribute>
pIC50

>  <reading>
7.66

$$$$
>  <compound>
N#Cc1cnc(NCc2ccccc2C(F)(F)F)nc1NCC12CC3CC(C1)C(NC[C@H]1CC[C@H](O)CC1)C(C3)C2 (stereo partly specified)

>  <measured-attribute>
pIC50

>  <reading>
7.77

$$$$

Now take the following compound into account.
Request: Look at this compound and give its reported pIC50. N#Cc1cnc(NCc2ccccc2OC(F)(F)F)nc1NCC12CC3CC(C1)C(NC[C@H]1CC[C@H](O)CC1)C(C3)C2 (stereo partly specified)
Result: 7.96

====

- experiment-summary: Volume of distribution at steady state in Sprague-Dawley rat at 1 mg/kg, iv by LC-MS/MS analysis
- Format: ADME, organism-based
- particulars: in vivo, read-out: Vdss
measured-attribute: Vd (L/kg)
Report the figure in L/kg without appending any unit label.

Request: State the recorded Vd for this entry: CSc1ncccc1CNc1ncc(C#N)c(NCC23CC4CC(C2)C(NC[C@H]2CC[C@H](O)CC2)C(C4)C3)n1 (stereo partly specified)
Result: 12.9

====

- system-name: Protein kinase C theta type (Homo sapiens, UniProt Q04759)
- experiment-summary: Inhibition of recombinant human full length PKCtheta using biotin-labelled STK substrate-1 as substrate after 60 mins by fluorescence assay
pIC50: −log10 of the molar value.
measured-attribute: pIC50

Answered examples (2):
>  <molecule>
COc1nnccc1CNc1ncc(C#N)c(NCC23CC4CC(C2)C(NC[C@H]2CC[C@H](O)CC2)C(C4)C3)n1 (stereo partly drawn)

>  <pIC50>
< 7.00

$$$$
>  <molecule>
N#Cc1cnc(NCc2ccccc2OC(F)(F)F)nc1NCC12CC3CC(C1)C(NC1CCOCC1)C(C3)C2 (stereo not drawn)

>  <pIC50>
> 9.00

$$$$

// moving on: another record for pIC50
Request: Value lookup for pIC50; key = CC(C)NC1C2CC3CC1CC(CNc1nc(NCc4ccccc4OC(F)(F)F)ncc1C#N)(C3)C2 (stereo not drawn)
Result: > 9.00
